assay: Metabolic stability / intrinsic clearance in cryopreserved human hepatocytes; settings: human, hepatocytes, Half-life, single replicates (1st, 2nd, 3rd), human hepatocytes; 1.0E-06 M
readoutType: half-life at 1 µM (min)

                                   compound        readouttype  observedresult
0  CCN(CC)CCN1C(=O)CN=C(c2ccccc2F)c2cc(Cl)ccc21 [Flurazepam, reference compound]  half-life at 1 µM            52.9

====

biological target: GPR40 (FFAR1) (Homo sapiens, UniProt O14842); experiment: PathHunter β-arrestin assay (Eurofins Discovery), GPR40; type: cell-based; conditions: GPR40 EC50 measured
Sequence (O14842 whole entry): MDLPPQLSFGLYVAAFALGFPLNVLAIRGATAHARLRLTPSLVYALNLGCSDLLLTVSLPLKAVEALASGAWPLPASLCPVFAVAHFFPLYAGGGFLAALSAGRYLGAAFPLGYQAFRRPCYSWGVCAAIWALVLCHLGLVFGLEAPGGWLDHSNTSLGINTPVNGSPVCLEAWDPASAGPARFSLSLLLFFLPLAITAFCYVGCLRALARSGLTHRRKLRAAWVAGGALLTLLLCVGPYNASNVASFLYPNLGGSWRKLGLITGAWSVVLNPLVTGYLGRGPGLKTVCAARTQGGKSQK
readoutType: EC50 (µM)

In [3]: df
Out[3]:
                                   compound  observedresult
0  CCCCCCCC/C=C\CCCCCCCC(=O)O [oleic acid, reference compound]              37
